The values you see were collected from patent US20260022143A1.

Assignment: determine reported pIC50 for the given compounds.
Target: IL-23R (Homo sapiens)
Construct: host or cells: HEK293
Sequence (Q5VWK5 24-629): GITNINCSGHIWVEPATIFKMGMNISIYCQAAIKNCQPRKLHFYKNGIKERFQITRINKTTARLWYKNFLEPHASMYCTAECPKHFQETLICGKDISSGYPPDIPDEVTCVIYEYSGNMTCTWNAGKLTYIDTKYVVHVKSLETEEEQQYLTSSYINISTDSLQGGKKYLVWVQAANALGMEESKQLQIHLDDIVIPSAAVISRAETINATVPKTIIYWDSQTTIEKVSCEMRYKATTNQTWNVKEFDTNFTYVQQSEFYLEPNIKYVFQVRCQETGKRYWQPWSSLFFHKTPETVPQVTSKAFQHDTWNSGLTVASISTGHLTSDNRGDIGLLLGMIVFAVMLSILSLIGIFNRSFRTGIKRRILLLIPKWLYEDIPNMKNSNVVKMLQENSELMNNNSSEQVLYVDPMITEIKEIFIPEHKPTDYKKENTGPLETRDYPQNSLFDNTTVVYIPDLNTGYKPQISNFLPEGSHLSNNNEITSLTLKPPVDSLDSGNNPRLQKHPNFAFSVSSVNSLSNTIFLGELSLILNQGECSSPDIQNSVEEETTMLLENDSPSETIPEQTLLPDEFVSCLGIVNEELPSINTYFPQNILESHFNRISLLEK
Assay: IL23R Reporter Assay
Type: cell-based
Conditions: HEK293 cells containing IL-23R, IL-12RP1 and STAT-inducible firefly luciferase reporter; 10 ng/mL IL-23 (EC90); 5 h at 37° C.; read-out: IL23R Reporter Assay
Reminder that pIC50 is minus the log10 of a molar concentration.

stdin: Suppose we examine the compound CC(=O)NCCCC[C@@H]1NC(=O)[C@H](Cc2c[nH]c3c(C)cccc23)NC(=O)[C@H]([C@@H](C)O)NC(=O)[C@H](CC(N)=O)NC(=O)[C@@H](NC(C)=O)C(C)(C)SSC(C)(C)[C@@H](C(=O)N[C@@H](Cn2cc(CC[N+](C)(C)C)nn2)C(=O)N[C@@H](Cc2ccc3ccccc3c2)C(=O)NC2(C(=O)N[C@@H](CCCCNC(C)=O)C(=O)N[C@@H](CC(N)=O)C(=O)N[C@@H](Cc3cccnc3)C(=O)N(C)CC(N)=O)CCOCC2)NC1=O ; what pIC50 value has been reported?
stdout: 7.40

stdin: Suppose we examine the compound CC(=O)N[C@H](COCCOCC[N+](C)(C)C)C(=O)N[C@@H]1C(=O)N[C@@H](CC(=O)N(C)C)C(=O)N[C@@H]([C@@H](C)O)C(=O)N[C@@H](Cc2c[nH]c3c(C)cccc23)C(=O)N[C@@H](CCCCN(C)C(C)=O)C(=O)N[C@H](C(=O)N[C@@H](Cc2ccc(OCCOCCOCC[N+](C)(C)C)cc2)C(=O)N[C@@H](Cc2ccc3ccccc3c2)C(=O)NC2(C(=O)N[C@@H](CCCCN(C)C(C)=O)C(=O)N[C@@H](CC(N)=O)C(=O)N[C@@H](Cc3cccnc3)C(=O)N(C)CC(=O)N(C)C)CCOCC2)C(C)(C)SSC1(C)C ; what pIC50 value has been reported?
stdout: 8.47

stdin: Suppose we examine the compound COCC[N+](C)(C)CCc1cn(C[C@H](NC(=O)[C@H]2NC(=O)[C@H](CCCCN(C)C(C)=O)NC(=O)[C@H](Cc3c[nH]c4c(C)cccc34)NC(=O)[C@H]([C@@H](C)O)NC(=O)[C@H](CC(=O)N(C)C)NC(=O)[C@@H](NC(=O)CCOCCOCC[N+](C)(C)C)C(C)(C)SSC2(C)C)C(=O)N[C@@H](Cc2ccc3ccccc3c2)C(=O)NC2(C(=O)N[C@@H](CCCCN(C)C(C)=O)C(=O)N[C@@H](CC(N)=O)C(=O)N[C@@H](Cc3cccnc3)C(=O)N(C)CC(=O)N(C)C)CCOCC2)nn1 ; what pIC50 value has been reported?
stdout: 7.62

stdin: Suppose we examine the compound CC(=O)NCCCC[C@@H]1NC(=O)[C@H](Cc2c[nH]c3c(-c4cccc(NC(C)=O)c4)cccc23)NC(=O)[C@H]([C@@H](C)O)NC(=O)[C@H](CC(N)=O)NC(=O)[C@@H](NC(=O)CCOCCOCC[N+](C)(C)C)C(C)(C)SSC(C)(C)[C@@H](C(=O)N[C@@H](Cc2ccc(OCCNC(=N)N)cc2)C(=O)N[C@@H](Cc2ccc3ccccc3c2)C(=O)NC2(C(=O)N[C@@H](CCCCN(C)C(C)=O)C(=O)N[C@@H](CC(N)=O)C(=O)N[C@@H](Cc3cncc(C)c3)C(=O)N(C)CC(N)=O)CCOCC2)NC1=O [compound 481] ; what pIC50 value has been reported?
stdout: 8.46
